Data provenance: the supplement of paper PMC8960247

- Tested on: 621-102 (TSC2-deficient)
- ASSAY NAME: relative viability vs DMSO; higher = less cytotoxic;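 further: immortalized renal angiomyolipoma cells stably carrying empty vector or TSC2, dosed in 384-well plates in DMEM, viability normalized to vehicle-treated wells within each plate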
- EXPERIMENTAL PARAMETERS: 10 µM; serum: 10% FBS; 72 h
PROPERTY LABEL: relative viability (%)

compound="Nc1cccc2c1CN(C1CCC(=O)NC1=O)C2=O (centres undefined) [Lenalidomide]" measured_target="621-102 (TSC2-deficient)" output_unit=% recorded_measurement=98.5
compound="C[S+]([O-])c1ccc(-c2nc(-c3ccc(F)cc3)c(-c3ccncc3)[nH]2)cc1 (centres undefined)" measured_target="621-102 (TSC2-deficient)" output_unit=% recorded_measurement=110
compound=Nc1ncnc2c1c(-c1cnc3[nH]ccc3c1)nn2C1CCCC1 measured_target="621-102 (TSC2-deficient)" output_unit=% recorded_measurement=5.4
compound=CC(C)C[C@H](NC(=O)CNC(=O)c1cc(Cl)ccc1Cl)B(O)O measured_target="621-102 (TSC2-deficient)" output_unit=% recorded_measurement=1.79

---

- System: 621-102 (TSC2-deficient)
- ASSAY NAME: relative viability vs DMSO; higher = less cytotoxic
- EXPERIMENTAL PARAMETERS: 0.1 µM; serum: 10% FBS; 72 h
Counter-ions that a name gives are not always drawn.
Reported relative viability values follow for various molecules
PROPERTY LABEL: relative viability (%)

molecule="CC(=O)Nc1ccccc1 [Acetanilide]" measured_target="621-102 (TSC2-deficient)" recorded_measurement=92
molecule="C#CCN(C)[C@H](C)Cc1ccccc1 [Selegiline HCl]" measured_target="621-102 (TSC2-deficient)" recorded_measurement=102
molecule="O=c1c(O)c(-c2ccc(O)c(O)c2)oc2cc(O)cc(O)c12 [Quercetin (Sophoretin)]" measured_target="621-102 (TSC2-deficient)" recorded_measurement=75
molecule="CO[C@@H]1[C@@H](OC(N)=O)[C@@H](O)[C@H](Oc2ccc3c(O)c(NC(=O)c4ccc(O)c(CC=C(C)C)c4)c(=O)oc3c2C)OC1(C)C [Novobiocin sodium (Albamycin)]" measured_target="621-102 (TSC2-deficient)" recorded_measurement=112

---

Listed here: items and their measured relative viability.
- Test system: 621-103 (TSC2-rescued)
- ASSAY NAME: relative viability vs DMSO; higher = less cytotoxic
- EXPERIMENTAL PARAMETERS: 1 µM; serum: 10% FBS; 72 h
Counter-ions that a name gives are not always drawn.
PROPERTY LABEL: relative viability (%)

compound=C/C(=C\C(=O)Nc1ccccc1C(=O)O)c1ccc2ccccc2c1 recorded_measurement=99.8
compound=CNCc1ccc(-c2[nH]c3cc(F)cc4c3c2CCNC4=O)cc1 recorded_measurement=111
compound=COc1cc(N2CCC(N3CCN(C)CC3)CC2)ccc1Nc1ncc(Cl)c(Nc2ccccc2S(=O)(=O)C(C)C)n1 recorded_measurement=75.2
compound=CC1(C)CCC(c2ccc(Cl)cc2)=C(CN2CCN(c3ccc(C(=O)NS(=O)(=O)c4ccc(N[C@H](CCN5CCOCC5)CSc5ccccc5)c(S(=O)(=O)C(F)(F)F)c4)cc3)CC2)C1 recorded_measurement=97.6
compound=CC[C@@]1(O)C(=O)OCc2c1cc1n(c2=O)Cc2cc3ccccc3nc2-1 recorded_measurement=10.3
compound="C#CCN(C)[C@H](C)Cc1ccccc1 [Selegiline HCl]" recorded_measurement=102
compound=CC(=O)NC[C@H]1CN(c2ccc(N3CCOCC3)c(F)c2)C(=O)O1 recorded_measurement=103
compound=NC1(c2ccc(-c3nc4ccn5c(=O)[nH]nc5c4cc3-c3ccccc3)cc2)CCC1 recorded_measurement=74
